Origin of values: the RepoRT retention time repository (doi:10.1038/s41586-021-03707-9)

- experimentDescription: Waters ACQUITY UPLC BEH C18, 100 × 2.1 mm, 1.7 µm, 40 °C, 0.28 mL/min, estimated dead time 0.63 min; A: water + 6.5 mM ammonium hydroxide; B: methanol + 6.5 mM ammonium hydroxide; gradient (min/%B) 0/0.5 4/70 4.5/98 5.4/98
- assayContext: stereoisomer not certain
Mark met for reported LC retention time of 2 min or greater; mark not met for anything smaller.

compound	classification
Nc1ccn(C2OC(CO)C3OP(=O)(O)OC32)c(=O)n1 (centres undefined)	not met
NC(Cc1c[nH]c2ccc(O)cc12)C(=O)O (centres undefined)	not met
O=C(O)c1cccc(O)c1	not met
O=C(O)CN(CCO)CCO	not met
O=C1OC(C(O)CO)C(O)C1O (centres undefined)	not met
CCCCC(=O)N(Cc1ccc(-c2ccccc2-c2nn[nH]n2)cc1)C(C(=O)O)C(C)C (centres undefined)	met
NC(N)=NCC(=O)O	not met
Nc1ccccc1S(=O)(=O)O	not met
O=C(O)Cc1ccccc1	not met
Nc1cc(O)cc(C(=O)O)c1	not met
C[N+](C)(C)CCCCC(N)C(=O)[O-] (centres undefined)	not met
O=C(O)c1ccncc1	not met
Cc1ncc(CO)c(C(=O)O)c1O	met
O=C(NO)c1ccccc1O	met

----------
- experimentDescription: RP, Waters ACQUITY UPLC HSS C18, 100 × 2.1 mm, 1.7 µm, 40 °C, 0.35 mL/min, estimated dead time 0.63 min; A: water + 0.1% formic acid; B: methanol + 0.1% formic acid; gradient (min/%B) 0/0.5 4/70 4.5/98 5.4/98
- assayContext: stereoisomer not certain
Items are presented alongside their recorded LC retention time.
reportedEndpoint: LC retention time

compound	reportedEndpoint	recordedMeasurement
Cc1ncc(CO)c(C(=O)O)c1O	LC retention time	1.97 min
CC12CCC(=O)C=C1CCC1C2C(=O)CC2(C)C1CCC2(O)C(=O)CO (stereo not drawn)	LC retention time	4.87 min
CC(=O)NC1C(O)CC(O)(C(=O)O)OC1C(O)C(O)CO (stereo not drawn)	LC retention time	0.846 min
Nc1ccc(C(=O)O)cc1	LC retention time	2.41 min
Nc1ncnc2c1ncn2C1OC(CSCCC(N)C(=O)O)C(O)C1O (stereo not drawn)	LC retention time	1.71 min
NC(Cc1ccc(O)c([N+](=O)[O-])c1)C(=O)O (stereo not drawn)	LC retention time	2.44 min
NC(CSCC(=O)O)C(=O)O (stereo not drawn)	LC retention time	0.873 min
CC(=O)NC(CCCCN)C(=O)O (stereo not drawn)	LC retention time	0.903 min
OCC1OC(OC2(CO)OC(CO)C(O)C2O)C(O)C(O)C1O (stereo not drawn)	LC retention time	0.86 min
CN1C(=O)CCC1c1cccnc1 (stereo not drawn)	LC retention time	1.72 min
CCOC(=O)CCC(=O)OCC	LC retention time	4.61 min
CSCC1OC(n2cnc3c(N)ncnc32)C(O)C1O (stereo not drawn)	LC retention time	2.85 min
COc1ccc(C=O)cc1	LC retention time	0.897 min

----------
Items are presented alongside their recorded LC retention time.
- experimentDescription: RP, Waters ACQUITY UPLC HSS C18, 100 × 2.1 mm, 1.7 µm, 40 °C, 0.35 mL/min, estimated dead time 0.63 min; A: water + 0.1% formic acid; B: methanol + 0.1% formic acid; gradient (min/%B) 0/0.5 4/70 4.5/98 5.4/98
- assayContext: stereoisomer not certain

compound	LC retention time [min]
O=C(O)CN(CCO)CCO	0.765
NCCc1ccc(O)c(O)c1	1.35
O=C(O)CNC(=O)C=Cc1ccccc1	4.18
O=C(O)Cc1cnc[nH]1	0.825
CCCCCCC(O)C(=O)O (stereo not given)	5.18
COc1cc(C(=O)O)ccc1O	3.33
Cc1c[nH]c(=O)[nH]c1=O	1.88
CCOC(=O)Cc1c[nH]c2ccccc12	5.21
O=C1OC(C(O)CO)C(O)C1O (stereo not given)	0.804
COc1ccccc1C=CC=O	5.02
CNC(CC(=O)O)C(=O)O (stereo not given)	0.772
C[N+](C)(C)CCCC(=O)[O-]	0.814
O=C(O)CCCCCC(=O)O	3.46
O=C(O)C=Cc1cccc(O)c1	4.38
O=C(O)CCCCc1ccccc1	5
O=C(O)CCCC(O)C(=O)O (stereo not given)	1.89
Nc1nc2c(ncn2C2OC(CO)C(O)C2O)c(=O)[nH]1 (stereo not given)	1.92
O=C(O)CCCCCCCCC(=O)O	4.96
CC(=O)OCC(=O)C1(O)CCC2C3CCC4=CC(=O)CCC4(C)C3C(O)CC21C (stereo not given)	5.32
CC(=O)NCCCC(=O)O	1.95
COC(=O)C(Cc1ccccc1)NC(=O)C(N)CC(=O)O (stereo not given)	3.56
Nc1cc(C(=O)O)ccc1O	1.25
Nc1nc2ncc(CNc3ccc(C(=O)NC(CCC(=O)O)C(=O)O)cc3)nc2c(=O)[nH]1 (stereo not given)	3.01
NC(CS(=O)O)C(=O)O (stereo not given)	0.768
O=C(O)CC(O)C(=O)O (stereo not given)	1.92
CCOC(=O)CC(=O)OCC	4.32
CNCCc1c[nH]c2ccccc12	2.87
O=C(O)c1ccc(=O)[nH]c1	1.96
CC(=O)NC(CC(N)=O)C(=O)O (stereo not given)	0.981
CC(=O)OCC1OC(OC(C)=O)C(OC(C)=O)C(OC(C)=O)C1OC(C)=O (stereo not given)	4.5
Cn1c(=O)[nH]c2[nH]c(=O)n(C)c2c1=O	2.78
O=C(O)C(O)C(O)C(O)C(=O)CO (stereo not given)	0.808
O=C(O)c1ccc(CO)o1	2.36
CC(=O)Nc1ccc(O)cc1	2.51
Cc1occc(=O)c1O	2.77

----------
- experimentDescription: Waters ACQUITY UPLC BEH C18, 100 × 2.1 mm, 1.7 µm, 40 °C, 0.28 mL/min, estimated dead time 0.63 min; A: water + 6.5 mM ammonium hydroxide; B: methanol + 6.5 mM ammonium hydroxide; gradient (min/%B) 0/0.5 4/70 4.5/98 5.4/98
- assayContext: stereoisomer not certain
Items are presented alongside their recorded LC retention time.
reportedEndpoint: LC retention time (min)

compound	recordedMeasurement
NCCc1c[nH]c2ccc(O)cc12	2.35
NC(CO)C(=O)O (centres undefined)	0.761
OCc1cccc(O)c1	2.93
O=C(O)CCCCCCC(=O)NCC(=O)O	0.865
CC(NC(=O)Cc1c[nH]c2ccccc12)C(=O)O (centres undefined)	3.24
O=C(O)c1cc(=O)[nH]c(=O)[nH]1	0.811
COc1ccc2[nH]cc(CCNC(C)=O)c2c1	4.19
OCC1OC(OC2(CO)OC(CO)C(O)C2O)C(O)C(O)C1O (centres undefined)	0.962
Nc1ncnc2c1ncn2C1OC(CO)C2OP(=O)(O)OC21 (centres undefined)	2.11
O=C(O)CNC(=O)C=Cc1ccccc1	3.49
CC(=O)c1ccc(O)cc1O	3.05
Nc1ccccc1C(=O)CC(N)C(=O)O (centres undefined)	2.21
CC=CC(=O)O	0.869
CSCCC(NC=O)C(=O)O (centres undefined)	1.75

----------
- experimentDescription: Waters ACQUITY UPLC BEH C18, 100 × 2.1 mm, 1.7 µm, 40 °C, 0.28 mL/min, estimated dead time 0.63 min; A: water + 6.5 mM ammonium hydroxide; B: methanol + 6.5 mM ammonium hydroxide; gradient (min/%B) 0/0.5 4/70 4.5/98 5.4/98
- assayContext: stereoisomer not certain

molecule	LC retention time / min
CN1CC(=O)NC1=N	0.861
OC1C2COC(O2)C(O)C1O (configuration not stated)	0.853
NC(Cc1ccc(O)c(O)c1)C(=O)O (configuration not stated)	1.1
CC(=O)OC(CC(=O)[O-])C[N+](C)(C)C (configuration not stated)	0.849
CCCCCCC(O)C(=O)O (configuration not stated)	4.12
c1ncc2[nH]cnc2n1	1.85
Cc1ncc(CO)c(C=O)c1O	1.77
CCCCCCC(=O)O	4.06
O=C(O)C1CCC(O)CC1 (configuration not stated)	0.776
O=CCc1c[nH]c2ccccc12	4.4
NCCC(=O)NC(Cc1cnc[nH]1)C(=O)O (configuration not stated)	0.9
O=C(O)c1ccc(CO)o1	0.87
Cc1ccc(O)c(O)c1	3.87
CN(C)CCc1ccc(O)cc1	3.89
O=S(=O)(O)Oc1c[nH]c2ccccc12	2.59
O=[N+]([O-])c1ccc(O)cc1	2.41
CC(=O)NC(CC(N)=O)C(=O)O (configuration not stated)	0.76
O=C(O)c1ccccn1	1.2
NC(CCSSCCC(N)C(=O)O)C(=O)O (configuration not stated)	0.929
CC(=O)NC(CC(C)C)C(=O)O (configuration not stated)	2.73
CCCC(N)C(=O)O (configuration not stated)	1.02
CC(=O)OCc1ccccc1	2.78
CC=CC=CC(=O)O	2.28
COc1cc(CCN)ccc1O	2.57
Cc1ccc(O)c([N+](=O)[O-])c1	4.33
CCC(C)C(O)C(=O)O (configuration not stated)	1.97
OCC1OC(Oc2ccc(O)cc2)C(O)C(O)C1O (configuration not stated)	1.81
O=C(O)Cc1c[nH]c2ccccc12	2.51
O=C(O)c1ccc(O)c(O)c1	0.797
CCCCCCCC(=O)O	4.74
NCCCCCCCC(=O)O	1.95
O=c1ccn(C2OC(CO)C(O)C2O)c(=O)[nH]1 (configuration not stated)	1.67
